B1: tRNA (parent)
chain: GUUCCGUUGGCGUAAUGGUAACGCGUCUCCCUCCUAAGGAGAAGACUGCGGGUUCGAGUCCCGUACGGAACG

Variants of: B1
ASSAY NOTES: yeast fitness relative to wild type (ratio to wild type); higher = fitter; tRNA-Arg(CCU), competitive growth, 37 C, YPD
This sample holds only a part of the variants without activity.
MEASURED QUANTITY: yeast fitness

Exercise: For the variant A45C G52A U53C G58A C62G , give its measured yeast fitness value.
Solution: ≤ 0.5

Exercise: For the variant C4A G6A A21C C24U , give its measured yeast fitness value.
Solution: 0.562

Exercise: For the variant C4U U47A G67A , give its measured yeast fitness value.
Solution: 0.607

Please state yeast fitness for every variant in the list that follows.
1. C46A G68A A70C
2. G9A C11U G48A
3. A37C C49A
4. C34U A57G
5. U19G A21G
6. G6C G50A A69U
7. C22A U47A C66A

Solution:
1. 1.11
2. 0.715
3. 0.651
4. 0.737
5. 1.05
6. 0.682
7. ≤ 0.5

Please state yeast fitness for every variant in the list that follows.
1. A14C C29U A36G A45U
2. C5U U19C G52A
3. C5G G17A C46G
4. C46U C49A C60A A70C
5. C24U U28C A40C A69C

Solution:
1: 0.543; 2: 0.625; 3: 0.538; 4: ≤ 0.5; 5: ≤ 0.5

Please state yeast fitness for every variant in the list that follows.
1. G10C C30G C49G
2. A42C G67A
3. A15U C24G C30U A57U
4. U19G A37G
5. G10C A14C G58A

Solution:
1: ≤ 0.5; 2: 0.833; 3: 0.832; 4: 0.76; 5: ≤ 0.5

Please state yeast fitness for every variant in the list that follows.
1. C30U G56A A69C
2. A14U G17C U53G
3. U3C U7A G44C C61U C62U G63C C66U A69G
4. U19G C22U A37G C66U A69U
5. C5U A43U G50U

Solution:
0.566
0.603
≤ 0.5
0.61
0.657

Please state yeast fitness for every variant in the list that follows.
1. C5U A37C C61G
2. C11G G44C C66A
3. C30U U54A
4. A20U U28G U32G C34G
5. C24G C30U C31U C61U G67C
6. C33A U54G A70C

Solution:
≤ 0.5
0.614
0.561
0.513
≤ 0.5
≤ 0.5

Please state yeast fitness for every variant in the list that follows.
1. U8A C29G A40G G63A
2. C5U A37G A43C G63C
3. G10A C27G C55A C61A

Solution:
["≤ 0.5", "≤ 0.5", "≤ 0.5"]

Please state yeast fitness for every variant in the list that follows.
1. C4U C24G C34A A45C G56A C61A A65C A69C A70G
2. G10C C27U
3. A15C C49U
4. C4A A14U C29U G68A
5. C5U G25C A42U
6. G12A C33G A36C A37G G44A
7. U32A A69C
8. A14U A37U A40C A42G

Solution:
1: 0.597; 2: 0.679; 3: 0.896; 4: ≤ 0.5; 5: 0.639; 6: ≤ 0.5; 7: 0.882; 8: ≤ 0.5

Please state yeast fitness for every variant in the list that follows.
1. C11U A45G C49A
2. G10A G39A A65C C66G
3. C4A C5U C24G
4. C5U A15G U19A A21U C34U
5. U13A G48C C55G

Solution:
1. 0.567
2. 0.556
3. ≤ 0.5
4. ≤ 0.5
5. 0.554
